assay: Dynamic solubility experiment at 37° C.; assay type: physicochemical; settings: FaSSIF, 4 h
Structures can show the parent of a compound that is named as a salt.
Result Type: Crystalline form change

Cc1cnc(-c2cc(O[C@@H](C)[C@@H](C)O)cc(C(=O)N[C@H](C)c3cnc(C(F)(F)F)nc3)c2F)s1 [Free base crystalline form A]: No
Cc1cnc(-c2cc(O[C@@H](C)[C@@H](C)O)cc(C(=O)N[C@H](C)c3cnc(C(F)(F)F)nc3)c2F)s1 [Crystalline form A of maleate]: Yes^a
Cc1cnc(-c2cc(O[C@@H](C)[C@@H](C)O)cc(C(=O)N[C@H](C)c3cnc(C(F)(F)F)nc3)c2F)s1 [Crystalline form A of hydrochloride]: Yes^a

====

Test: Dynamic solubility experiment at 37° C.
Format: physicochemical
Conditions: H2O, 1 h
Description: In the test, the purity, dynamic solubility and stability were tested using an Agilent 1260 high-performance liquid chromatograph, the molar ratio of salt-forming ions was tested using ion chromatography, and the analytical conditions are shown in Tables A-4 and A-5 below. Solids at a feeding concentration of 10 mg/mL (calculated based on free base) were rotationally mixed with corresponding vehicles at 37° C. […] The HPLC concentrations and pH values of the filtrates were determined. […]
Counter-ions that a name gives are not always drawn.
S: solubility listing for selected compounds.
Unit µg/mL implied. Number only.

Previously resolved entries follow.
Cc1cnc(-c2cc(O[C@@H](C)[C@@H](C)O)cc(C(=O)N[C@H](C)c3cnc(C(F)(F)F)nc3)c2F)s1 [Crystalline form A of maleate]: 7
Cc1cnc(-c2cc(O[C@@H](C)[C@@H](C)O)cc(C(=O)N[C@H](C)c3cnc(C(F)(F)F)nc3)c2F)s1 [Crystalline form A of hydrochloride]: 4
Cc1cnc(-c2cc(O[C@@H](C)[C@@H](C)O)cc(C(=O)N[C@H](C)c3cnc(C(F)(F)F)nc3)c2F)s1 [Crystalline form A of p-toluenesulfonate]: 6

Next, consider the following compound.
Dear colleague, I am looking for the recorded S: solubility of the following compound: Cc1cnc(-c2cc(O[C@@H](C)[C@@H](C)O)cc(C(=O)N[C@H](C)c3cnc(C(F)(F)F)nc3)c2F)s1 [Free base crystalline form A]
3

====

pH of filtrate listing for selected compounds.
test: Dynamic solubility experiment at 37° C.; format: physicochemical; settings: FaSSIF, 1 h
Where a name gives a salt, the structure may show the parent alone.
# answer = number (no unit)

Previously resolved entries follow.
Cc1cnc(-c2cc(O[C@@H](C)[C@@H](C)O)cc(C(=O)N[C@H](C)c3cnc(C(F)(F)F)nc3)c2F)s1 [Free base crystalline form A]: 6.5
Cc1cnc(-c2cc(O[C@@H](C)[C@@H](C)O)cc(C(=O)N[C@H](C)c3cnc(C(F)(F)F)nc3)c2F)s1 [Crystalline form A of hydrochloride]: 5.2
Cc1cnc(-c2cc(O[C@@H](C)[C@@H](C)O)cc(C(=O)N[C@H](C)c3cnc(C(F)(F)F)nc3)c2F)s1 [Crystalline form A of maleate]: 4.9

Next, consider the following compound.
Dear colleague, I am looking for the recorded pH of filtrate of the following compound: Cc1cnc(-c2cc(O[C@@H](C)[C@@H](C)O)cc(C(=O)N[C@H](C)c3cnc(C(F)(F)F)nc3)c2F)s1 [Crystalline form A of p-toluenesulfonate]
2.6

====

HPLC Purity (area %) listing for selected molecules.
assay: Solid state stability (XRPD and HPLC); format: physicochemical; conditions: 25° C./60% RH/uncovered, 1 week
Where a name gives a salt, the structure may show the parent alone.
Number plus unit, in that order.

Previously resolved entries follow.
Cc1cnc(-c2cc(O[C@@H](C)[C@@H](C)O)cc(C(=O)N[C@H](C)c3cnc(C(F)(F)F)nc3)c2F)s1 [Crystalline form A of p-toluenesulfonate]: 99.92 area %
Cc1cnc(-c2cc(O[C@@H](C)[C@@H](C)O)cc(C(=O)N[C@H](C)c3cnc(C(F)(F)F)nc3)c2F)s1 [Crystalline form A of hydrochloride]: 99.57 area %

Dear colleague, I am looking for the recorded HPLC Purity (area %) of the following molecule: Cc1cnc(-c2cc(O[C@@H](C)[C@@H](C)O)cc(C(=O)N[C@H](C)c3cnc(C(F)(F)F)nc3)c2F)s1 [Crystalline form A of maleate]
99.71 area %

# repeat for Cc1cnc(-c2cc(O[C@@H](C)[C@@H](C)O)cc(C(=O)N[C@H](C)c3cnc(C(F)(F)F)nc3)c2F)s1 [Free base crystalline form A]
99.38 area %
